- System: Mycobacterium tuberculosis Erdman (autoluminescent)
- TEST_DETAILS: Einf, fitted maximum growth inhibition of combination (fraction); higher = stronger maximal inhibition
- ASSAY_SETUP: in vitro model: acidic pH 5.7; time point: terminal (~4-5 doublings, model-specific)
MEASUREMENT_LABEL: Einf
API doc: respond with a numeric literal and nothing else, no unit.

NC(=O)c1cnccn1 [pyrazinamide] + CO[C@H]1/C=C/O[C@@]2(C)Oc3c(C)c(O)c4c(O)c(c(/C=N/N5CCN(C)CC5)c(O)c4c3C2=O)NC(=O)/C(C)=C\C=C\[C@H](C)[C@H](O)[C@@H](C)[C@@H](O)[C@@H](C)[C@H](OC(C)=O)[C@@H]1C [rifampicin]	0.992
NNC(=O)c1ccncc1 [isoniazid] + CO[C@H]1/C=C/O[C@@]2(C)Oc3c(C)c(O)c4c(O)c(c(/C=N/N5CCN(C)CC5)c(O)c4c3C2=O)NC(=O)/C(C)=C\C=C\[C@H](C)[C@H](O)[C@@H](C)[C@@H](O)[C@@H](C)[C@H](OC(C)=O)[C@@H]1C [rifampicin]	0.99
CC[C@@H](CO)NCCN[C@@H](CC)CO [ethambutol] + CO[C@H]1/C=C/O[C@@]2(C)Oc3c(C)c(O)c4c(O)c(c(/C=N/N5CCN(C)CC5)c(O)c4c3C2=O)NC(=O)/C(C)=C\C=C\[C@H](C)[C@H](O)[C@@H](C)[C@@H](O)[C@@H](C)[C@H](OC(C)=O)[C@@H]1C [rifampicin]	0.979
CC[C@@H](CO)NCCN[C@@H](CC)CO [ethambutol] + CO[C@H]1/C=C/O[C@@]2(C)Oc3c(C)c(O)c4c(O)c(c(/C=N/N5CCN(C6CCCC6)CC5)c(O)c4c3C2=O)NC(=O)/C(C)=C\C=C\[C@H](C)[C@H](O)[C@@H](C)[C@@H](O)[C@@H](C)[C@H](OC(C)=O)[C@@H]1C [rifapentine]	0.985
O=[N+]([O-])c1cn2c(n1)OC[C@@H](OCc1ccc(OC(F)(F)F)cc1)C2 [pretomanid] + CO[C@H]1/C=C/O[C@@]2(C)Oc3c(C)c(O)c4c(O)c(c(/C=N/N5CCN(C)CC5)c(O)c4c3C2=O)NC(=O)/C(C)=C\C=C\[C@H](C)[C@H](O)[C@@H](C)[C@@H](O)[C@@H](C)[C@H](OC(C)=O)[C@@H]1C [rifampicin]	0.985

Item: COc1nc2ccc(Br)cc2cc1[C@@H](c1ccccc1)[C@@](O)(CCN(C)C)c1cccc2ccccc12 [bedaquiline] + NNC(=O)c1ccncc1 [isoniazid] | Einf: 0.984

Item: CC(=O)NC[C@H]1CN(c2ccc(N3CCOCC3)c(F)c2)C(=O)O1 [linezolid] + CO[C@H]1/C=C/O[C@@]2(C)Oc3c(C)c(O)c4c(O)c(c(/C=N/N5CCN(C)CC5)c(O)c4c3C2=O)NC(=O)/C(C)=C\C=C\[C@H](C)[C@H](O)[C@@H](C)[C@@H](O)[C@@H](C)[C@H](OC(C)=O)[C@@H]1C [rifampicin] | Einf: 0.983

Item: CC(C)/N=c1\cc2n(-c3ccc(Cl)cc3)c3ccccc3nc-2cc1Nc1ccc(Cl)cc1 [clofazimine] + NC(=O)c1cnccn1 [pyrazinamide] | Einf: 0.98

Item: NNC(=O)c1ccncc1 [isoniazid] + CO[C@H]1/C=C/O[C@@]2(C)Oc3c(C)c(O)c4c(O)c(c(/C=N/N5CCN(C6CCCC6)CC5)c(O)c4c3C2=O)NC(=O)/C(C)=C\C=C\[C@H](C)[C@H](O)[C@@H](C)[C@@H](O)[C@@H](C)[C@H](OC(C)=O)[C@@H]1C [rifapentine] | Einf: 0.987

Item: COc1nc2ccc(Br)cc2cc1[C@@H](c1ccccc1)[C@@](O)(CCN(C)C)c1cccc2ccccc12 [bedaquiline] + CC(C)/N=c1\cc2n(-c3ccc(Cl)cc3)c3ccccc3nc-2cc1Nc1ccc(Cl)cc1 [clofazimine] | Einf: 0.986

Item: CC(C)/N=c1\cc2n(-c3ccc(Cl)cc3)c3ccccc3nc-2cc1Nc1ccc(Cl)cc1 [clofazimine] + CC(=O)NC[C@H]1CN(c2ccc(N3CCOCC3)c(F)c2)C(=O)O1 [linezolid] | Einf: 0.973

Item: COc1c(N2C[C@@H]3CCCN[C@@H]3C2)c(F)cc2c(=O)c(C(=O)O)cn(C3CC3)c12 [moxifloxacin] + NC(=O)c1cnccn1 [pyrazinamide] | Einf: 0.958

Item: CC(C)/N=c1\cc2n(-c3ccc(Cl)cc3)c3ccccc3nc-2cc1Nc1ccc(Cl)cc1 [clofazimine] + CC[C@@H](CO)NCCN[C@@H](CC)CO [ethambutol] | Einf: 0.937
